tested_target: T1, Tumor Necrosis Factor-alpha (TNF-α), R&D systems 210-TA / 210-TA-CF (human, UniProt P01375 77-233)
T1 construct: Bought protein; also called huTNF-α
T1 sequence (P01375 77-233 limits assumed): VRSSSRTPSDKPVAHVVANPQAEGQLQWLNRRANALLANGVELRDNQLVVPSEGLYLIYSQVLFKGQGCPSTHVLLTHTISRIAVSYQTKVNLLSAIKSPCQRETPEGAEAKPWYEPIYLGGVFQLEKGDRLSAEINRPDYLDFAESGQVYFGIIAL
experimental_protocol: biolayer interferometry (Octet QK); biotinylated TNF-α on streptavidin sensor, antibody 8 nM to 1 nM
measure_name: Kd (nM)
Dear colleague, please return just the value in nM, with no unit written.

// below: answered binders
anti-TNF-α antibody Ab18 (antibody, V domains shown) VH: QSVEESGGRLVTPGTPLTLTCTVSGIDLSSYAMGWVRQAPGKGLEYIGYILSSGITYYASWARGRFTISKTSSTTVDLKMTSLTTEDTATYFCVRNGNYNVGTDI VL: ADIVMTQTPASVSEPVGGTVTIKCQASQNIYSTLAWYQQKPGQPPKLLIYLASTLESGVPSRFKGSGSGTEFTLTISDLECADAATYYCQTSHGSNSESFGYA	0.01
anti-TNF-α antibody Ab4 (antibody, V domains shown) VH: QSVEESGGRLVTPGTPLTLTCTVSGLSLSTETINWVRQAPGKGLEWIGYIDSSGGTGYANWARGRFTISKTSTTVDLKITSPTTGDTATYFCARGTITTGMNI VL: MDTRAPTQLLGLLLLWLTGATFAAVLTQTPSPVSAVVGGTVSISCQSSKRVVNSVALSWYQQKPGRSPKLLIYFASKLASGVPSRFKGSGSGTQFTLAISDVQCDDAATYYCAGHYTDSGDDA	0.01

Next, consider the following binder.
# input What does the data say about its Kd? Entry: anti-TNF-α antibody Ab14 (antibody, V domains shown) VH: QSVEESGGRLVTPGTPLTLTCTVSGFSLSSYAMGWVRQAPGKGLEYIGYIGSSGITYYTSWARGRFTISKPSSTTVDLKMTSLTTEDTATYFCARNGNYNSGTDI VL: ADIVMTQTPASVSEPVGGTVTIKCQASQNIYSTLAWYQQKPGQPPKLLIYLASTLASGVPSRFKGSGSGTQFTLTISDLECADAATYYCQTNHGSNSDSFGYA
# output 0.01
